test: yeast display, Sf9 membrane polyspecificity reagent, FACS + sequencing; frameworks hold sequencing errors
quantity: polyreactivity (PSR sort gate)

QVQLQGSGGGLAQAGDSLRLSCAASGTIFSEYNNGLVSPGAGQRTRTCCRYWCWGNTYYADSAKRRFTTSRDNAKNTLYLQKNSLKPEDTAVYYCAFNRPYPSRHIYRGQGTQVTVSS = high polyreactivity
QVQLVESGGGLVQAGGSLRLSCAASGYTFSAYAMGWYRQAPGKERELVAVINRSGVRTYYADSVKGRFTISRDNAKNTVYLQMNSLKPEDTAVYYCAAPPRANLFDYWGQGTQVTVSS = high polyreactivity

====

assay: yeast display, Sf9 membrane polyspecificity reagent, FACS + sequencing; frameworks hold sequencing errors
quantity: polyreactivity (PSR sort gate)

Answered examples (4):
QVQLVESGGGLVQAGGSLRLICAASGSIFYYNVMGWYRQAPGKEREWVAAIDIDGSTYYADSVNGRFTIARDNAKNTVYLQMNSLKPADTAVYYCNAQAPYWFSFYSDHKYDYWGLGTQVTVSS = low polyreactivity
QVQLVESGGGLVQAGGRIRLTCAASGFTFKAYSMGCDRQAPGKERELVAAITKSGGRTFYADSVKGRFRISRDNAKNTVYLQMNSLKPEDTAVYYCAASYTVYYWGQGTQVTVSS = high polyreactivity
QVQLVESGGGLVQAGGSLRLSCAASGRTFRNNAMGLCRQAPGKEREFVAVISNTGGSTYYADSVKGRFTISRDNAKNTVYLQMNSLKPEDTAVYYCAVRPRYSQYYYWGQGTQVTVSS = high polyreactivity
QVQLVESGGGLVQAGGSLRLSCAASGSTFVYYAMGWYRQAPGKERELVAAITGSVDSTYYADSVKGRFTISRDNAKNTVYLQMNSLKPEDTAVYYCAADTYSTYWGQGTQVTVSS = low polyreactivity

Next up:
Problem: Endpoint output: polyreactivity (PSR sort gate) of QDQLVESGGGLVQAGGSLRLSCAASGLIFRHYAMGWSRQAPGKERELVAAITWSGGSTYYADSVKGRFTISRDNAKNTVYLQMNSLKAEDTAVYYCAAEGTGYSVGWQYGYWGQGTQVTVSS . Value?
Result: low polyreactivity
